IC50 overview
Test: Inhibition of gp120 in HIV-1 pseudotyped with A-MLV envelop glycoprotein infected in dog Cf2Th-CD4/CCR5 cells assessed as inhibition of viral entry incubated for 30 mins prior to infection and further incubated for 48 to 72 hrs in presence of firefly D-luciferin free acid and ATP by single-round infection luciferase assay

[H]/N=C(/N)NC[C@H]1[C@H](CC[C@H](O)CO)c2cc(CNC)ccc2[C@@H]1NC(=O)C(=O)Nc1ccc(Cl)c(F)c1 | > 300 µM
CNCc1ccc2c(c1)[C@H](NC(=O)C(=O)Nc1ccc(Cl)c(F)c1)[C@@H](CNC(=N)N)[C@@H]2CC[C@H](O)CO | > 300 µM
CNCc1ccc2c(c1)[C@H](NC(=O)C(=O)Nc1ccc(Cl)c(F)c1)[C@@H](CNC(=N)N)[C@@H]2CCCO | > 300 µM
CNCc1ccc2c(c1)[C@H](NC(=O)C(=O)Nc1ccc(Cl)c(F)c1)[C@@H](CNC(=N)N)[C@@H]2CCC(O)CO (stereo partly specified) | > 300 µM
[H]/N=C(/N)NC[C@H]1[C@H](CC[C@@H](O)CO)c2cc(CNC)ccc2[C@@H]1NC(=O)C(=O)Nc1ccc(Cl)c(F)c1 | > 300 µM
C=CCC[C@@H]1c2cc(CNC)ccc2[C@H](NC(=O)C(=O)Nc2ccc(Cl)c(F)c2)[C@H]1CNC(=N)N | > 300 µM
CNCc1ccc2c(c1)[C@@H](CCCO)[C@H](CNC(=N)N)[C@H]2NC(=O)C(=O)Nc1ccc(Cl)c(F)c1 | > 300 µM
C=CCC[C@@H]1c2ccc(CNC)cc2[C@H](NC(=O)C(=O)Nc2ccc(Cl)c(F)c2)[C@H]1CNC(=N)N | > 300 µM
CNCc1ccc2c(c1)[C@@H](CCC(O)CO)[C@H](CNC(=N)N)[C@H]2NC(=O)C(=O)Nc1ccc(Cl)c(F)c1 (stereo partly specified) | > 300 µM
CCCC[C@@H]1c2cc(CNC)ccc2[C@H](NC(=O)C(=O)Nc2ccc(Cl)c(F)c2)[C@H]1CNC(=N)N | > 100 µM

QUERY: Complete the entry with IC50 for `CNCc1ccc2c(c1)[C@@H](CCC(=O)CO)[C@H](CNC(=N)N)[C@H]2NC(=O)C(=O)Nc1ccc(Cl)c(F)c1`
RESULT: > 100 µM

====

Experiment: Inhibition of gp120 in HIV-1 A4 infected in dog Cf2Th-CD4/CCR5 cells assessed as inhibition of viral entry incubated for 30 mins prior to infection and further incubated for 48 to 72 hrs in presence of firefly D-luciferin free acid and ATP by single-round infection luciferase assay
MEASURED_ENDPOINT: IC50

[H]/N=C(/N)NC[C@H]1Cc2cc(CNC)ccc2[C@@H]1NC(=O)C(=O)Nc1ccc(Cl)c(F)c1 | 200 µM

QUERY: Complete the entry with IC50 for CNCc1ccc2c(c1)[C@@H](CCC(O)CO)[C@H](CNC(=N)N)[C@H]2NC(=O)C(=O)Nc1ccc(Cl)c(F)c1 (some centres not stated)
RESULT: 98.9 µM

====

Test: Inhibition of gp120 in HIV-1 191084 infected in dog Cf2Th-CD4/CCR5 cells assessed as inhibition of viral entry incubated for 30 mins prior to infection and further incubated for 48 to 72 hrs in presence of firefly D-luciferin free acid and ATP by single-round infection luciferase assay
MEASURED_ENDPOINT: IC50 (µM)
Field format: number, assumed µM, no unit text.

CNCc1ccc2c(c1)[C@@H](CCC(O)CO)[C@H](CNC(=N)N)[C@H]2NC(=O)C(=O)Nc1ccc(Cl)c(F)c1 (some centres not stated) | 20.6

Next item in the queue.
QUERY: Complete the entry with IC50 for `[H]/N=C(/N)NC[C@H]1Cc2cc(CNC)ccc2[C@@H]1NC(=O)C(=O)Nc1ccc(Cl)c(F)c1`
RESULT: 95.9

Source of measurements: BindingDB's records for doi:10.1021/acsmedchemlett.1c00437
